molecular target: recombinant human DAO (diamine oxidase) (Homo sapiens); construct: purchased R&D systems; experiment: Activity on recombinant human DAO, Amplex Red method, 1 mM putrescine substrate; format: biochemical; conditions: recombinant human DAO, 1 mM putrescine substrate; read-out: Inhibitory Activity (IC50, nM) DAO
Sequence (P19801 20-751): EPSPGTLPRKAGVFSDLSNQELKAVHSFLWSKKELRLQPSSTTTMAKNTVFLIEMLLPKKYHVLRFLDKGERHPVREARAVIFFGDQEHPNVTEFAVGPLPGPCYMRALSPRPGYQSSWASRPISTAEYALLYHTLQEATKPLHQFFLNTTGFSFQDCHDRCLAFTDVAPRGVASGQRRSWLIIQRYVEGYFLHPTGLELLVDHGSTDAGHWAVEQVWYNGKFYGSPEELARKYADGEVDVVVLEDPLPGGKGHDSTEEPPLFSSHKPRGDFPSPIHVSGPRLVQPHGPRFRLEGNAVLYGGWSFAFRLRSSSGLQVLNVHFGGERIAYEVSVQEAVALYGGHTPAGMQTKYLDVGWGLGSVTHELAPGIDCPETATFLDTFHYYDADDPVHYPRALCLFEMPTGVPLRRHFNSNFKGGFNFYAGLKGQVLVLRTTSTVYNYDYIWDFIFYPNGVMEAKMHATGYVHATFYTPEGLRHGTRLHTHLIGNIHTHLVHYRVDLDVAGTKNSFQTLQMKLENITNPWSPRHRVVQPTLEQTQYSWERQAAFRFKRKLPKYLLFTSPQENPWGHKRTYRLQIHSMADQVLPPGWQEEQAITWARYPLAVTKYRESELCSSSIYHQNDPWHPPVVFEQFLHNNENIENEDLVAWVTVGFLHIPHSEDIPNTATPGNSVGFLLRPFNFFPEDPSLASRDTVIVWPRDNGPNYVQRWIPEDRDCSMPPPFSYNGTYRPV
Structures can show the parent of a compound that is named as a salt.
Consider the following partition of reported IC50 into named classes: bucket 1 = under 20 nM, bucket 2 = from 20 nM up to 100 nM, bucket 3 = 100 nM and over

Solved entries (count: 3):
{"compound": "NC/C(=C\\F)Cn1ncn(-c2cccc(/C=C/c3ccsc3)n2)c1=O [Example 237]", "label": "bucket 3"}
{"compound": "NC/C(=C\\F)Cn1ncn(-c2cccc(-c3ccc(-c4noc(C5CC5)n4)cc3)n2)c1=O [Example 178, hydrochloride]", "label": "bucket 1"}
{"compound": "NC/C(=C\\F)Cn1ncn(-c2ccnc(-c3ccc4c(c3)OCO4)c2)c1=O [Example 209, hydrochloride]", "label": "bucket 1"}

q: Which bin, given its IC50, does Cc1cc(-c2ccc(N3CCNCC3)nc2)cnc1-n1cnn(C/C(=C/F)CN)c1=O [Example 259] occupy?
a: bucket 3

q: Which bin, given its IC50, does NC/C(=C\F)Cn1ncn(-c2cccc(-c3cccc4[nH]c(=O)ccc34)n2)c1=O [Example 201, hydrochloride] occupy?
a: bucket 1

q: Which bin, given its IC50, does NC/C(=C\F)Cn1ncn(-c2cccc(/C=C/c3ccc(C(F)(F)F)cc3)n2)c1=O [Example 238, Hydrochloride] occupy?
a: bucket 1

q: Which bin, given its IC50, does Cn1cc(C#Cc2cccc(-n3cnn(C/C(=C/F)CN)c3=O)n2)cn1 [Example 257, hydrochloride] occupy?
a: bucket 2

q: Which bin, given its IC50, does Cc1cc(-n2cnn(C/C(=C/F)CN)c2=O)ncc1-c1ccc2sc(N)nc2c1 [Example 161, hydrochloride] occupy?
a: bucket 1
